test system: Rabbit Psoas myofibrils (skeletal myosin ATPase); experiment: Myofibril ATPase assay, rabbit psoas (skeletal) myofibrils; format: biochemical; details: Y75 value (no ‡ mark); rabbit psoas myofibrils
Measured Endpoint: Skeletal EC25 (µM)

compound="C[C@@H](NC(=O)Cc1c(C2CC2)c2cc(F)ccc2[nH]c1=O)c1ccc(C#N)cc1F [compound 73]" measured_endpoint="Skeletal EC25" value=0.02
compound="C[C@H](NC(=O)C(F)(F)c1cc2cc(F)ccc2[nH]c1=O)c1cc(C#N)ccn1 (single isomer, unassigned) [compound 2574]" measured_endpoint="Skeletal EC25" value=100.00

P = Cc1ccc2[nH]c(=O)c(CC(=O)N[C@@H](C)c3ncc(C#N)cn3)cc2c1F (single isomer, unassigned) [compound 2014]
Q = Cc1nc(C#N)ccc1[C@H](C)NC(=O)Cc1c(C)c2cc(F)ccc2[nH]c1=O [compound 1051]
// compare: P vs Q , metric Skeletal EC25, want the smaller Field: selected label. Fill in the label of the entry you choose.
Q

====

test system: Porcine atria myofibrils (atrial myosin ATPase); assay: Myofibril ATPase assay, porcine atria myofibrils; assay type: biochemical; details: porcine atria myofibrils; Y75 value (75% activity relative to no compound)
Measured Endpoint: Atrial EC25 (µM)

a = C[C@H](NC(=O)Cc1cc2c(C#N)nccc2[nH]c1=O)c1ccc(C#N)cn1 [compound 473]
b = Cc1nc([C@@H](C)NC(=O)Cc2c(C)c3c(C)nccc3[nH]c2=O)ncc1C#N [compound 478]
c = C[C@H](NC(=O)Cc1cc2c(C#N)nccc2[nH]c1=O)c1ccc(F)cn1 [compound 475]
Arrange by Atrial EC25, high to low. # the answer lists labels in the order requested
c, b, a
(c: 100.00 µM, b: 5.84 µM, a: 1.44 µM)

P = Cc1nccc2[nH]c(=O)c(CC(=O)N[C@H](CO)c3ccccn3)c(C)c12 (single isomer, unassigned) [compound 316]
Q = COC[C@H](NC(=O)Cc1c(C)c2c(C#N)nccc2[nH]c1=O)c1ccc(C#N)cc1F [compound 170]
// max by Atrial EC25 over [ P , Q ] Field: selected label. Fill in the label of the entry you choose.
P
(P: 100.00 µM, Q: 0.08 µM)

====

Biological target: Porcine ventricle myofibrils (ventricular myosin ATPase) (Sus scrofa)
Construct: Myofibrils from porcine cardiac muscle was isolated from the left ventricle of Yucatan minipigs; tissue Exemplar Genetics; host or cells: left ventricle of Yucatan minipigs, myofibrils prepared in house
Sequence (P79293 whole entry): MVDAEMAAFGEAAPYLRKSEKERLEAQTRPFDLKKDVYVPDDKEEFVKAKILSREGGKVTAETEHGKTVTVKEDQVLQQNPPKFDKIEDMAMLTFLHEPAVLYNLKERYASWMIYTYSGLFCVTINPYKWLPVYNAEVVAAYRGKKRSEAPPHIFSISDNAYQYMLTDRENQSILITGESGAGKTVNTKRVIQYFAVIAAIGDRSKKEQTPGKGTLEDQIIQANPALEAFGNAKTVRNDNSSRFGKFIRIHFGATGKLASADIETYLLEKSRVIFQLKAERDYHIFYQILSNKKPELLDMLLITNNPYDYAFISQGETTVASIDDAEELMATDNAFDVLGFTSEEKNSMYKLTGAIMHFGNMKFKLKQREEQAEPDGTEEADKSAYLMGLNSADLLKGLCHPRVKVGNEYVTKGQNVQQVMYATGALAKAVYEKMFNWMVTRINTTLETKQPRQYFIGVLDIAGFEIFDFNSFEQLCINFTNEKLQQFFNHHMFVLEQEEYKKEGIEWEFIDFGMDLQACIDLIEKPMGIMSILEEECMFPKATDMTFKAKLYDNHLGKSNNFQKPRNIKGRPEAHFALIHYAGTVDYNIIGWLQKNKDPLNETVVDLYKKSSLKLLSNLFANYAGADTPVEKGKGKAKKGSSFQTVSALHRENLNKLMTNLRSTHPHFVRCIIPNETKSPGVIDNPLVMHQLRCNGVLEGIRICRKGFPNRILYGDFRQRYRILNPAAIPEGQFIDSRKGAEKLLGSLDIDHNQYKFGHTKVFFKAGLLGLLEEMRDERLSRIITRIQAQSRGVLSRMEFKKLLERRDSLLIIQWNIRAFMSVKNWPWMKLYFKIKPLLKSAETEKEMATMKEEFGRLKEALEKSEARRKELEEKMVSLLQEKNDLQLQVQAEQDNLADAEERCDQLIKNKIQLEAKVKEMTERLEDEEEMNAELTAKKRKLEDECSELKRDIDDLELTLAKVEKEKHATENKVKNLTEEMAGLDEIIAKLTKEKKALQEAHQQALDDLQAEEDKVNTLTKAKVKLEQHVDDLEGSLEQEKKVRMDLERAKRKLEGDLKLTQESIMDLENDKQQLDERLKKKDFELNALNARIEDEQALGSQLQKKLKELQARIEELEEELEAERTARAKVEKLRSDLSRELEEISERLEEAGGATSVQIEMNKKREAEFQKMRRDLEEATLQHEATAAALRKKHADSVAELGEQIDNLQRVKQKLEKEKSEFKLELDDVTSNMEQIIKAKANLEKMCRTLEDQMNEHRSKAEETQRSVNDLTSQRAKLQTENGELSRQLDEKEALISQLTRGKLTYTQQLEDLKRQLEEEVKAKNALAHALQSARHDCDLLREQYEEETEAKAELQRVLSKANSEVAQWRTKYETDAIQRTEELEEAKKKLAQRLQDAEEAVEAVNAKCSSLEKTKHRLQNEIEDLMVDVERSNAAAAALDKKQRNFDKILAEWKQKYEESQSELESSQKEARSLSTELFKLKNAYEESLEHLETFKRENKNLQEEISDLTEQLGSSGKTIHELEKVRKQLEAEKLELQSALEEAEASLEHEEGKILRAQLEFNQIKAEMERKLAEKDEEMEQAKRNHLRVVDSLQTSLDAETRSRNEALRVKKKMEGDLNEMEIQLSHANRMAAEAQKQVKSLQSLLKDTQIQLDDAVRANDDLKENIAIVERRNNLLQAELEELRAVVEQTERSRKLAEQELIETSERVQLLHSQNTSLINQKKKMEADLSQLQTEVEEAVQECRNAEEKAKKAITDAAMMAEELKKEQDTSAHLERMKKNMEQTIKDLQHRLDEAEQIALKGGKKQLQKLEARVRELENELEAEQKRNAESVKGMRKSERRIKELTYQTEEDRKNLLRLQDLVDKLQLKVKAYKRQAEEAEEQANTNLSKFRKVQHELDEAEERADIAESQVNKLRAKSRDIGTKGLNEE
Test: Myofibril ATPase assay, porcine ventricle myofibrils
Type: biochemical, porcine (Yucatan minipigs)
Conditions: porcine ventricle myofibrils; Y75 value
Method: Example 1. Myofibril ATPase Assay Myofibril ATPase assays are known in the art to be useful in evaluating small molecules for the treatment of HCM and other cardiac indications. Myosin ATPase activity is assessed by using a coupled reaction system, in which ADP generated by the myosin ATPase function is coupled to the disappearance of NADH through the pyruvate kinase/lactate dehydrogenase (PK-LDH) system. […]
Measured Endpoint: Ventricular EC25 (µM)

Here's what some known entries look like.
compound="Cc1nccc2[nH]c(=O)c(CC(=O)N[C@H](C)c3ccccc3O)c(C)c12 (single isomer, unassigned) [compound 320]" result_units=µM value=100.00
compound="C[C@H](NC(=O)[C@@H](C)c1cc2c(C3CC3)nccc2[nH]c1=O)c1ccc(F)cc1F (single isomer, unassigned) [compound 356]" result_units=µM value=100.00
compound="Cc1c(CC(=O)N[C@H]2c3c(F)cc(F)cc3OC2(C)C)c(=O)[nH]c2ccnc(C#N)c12 (single isomer, unassigned) [compound 187]" result_units=µM value=1.36

a = Cc1c([C@@H](C)C(=O)N[C@@H](C)c2ccc(F)cc2F)c(=O)[nH]c2ccnc(Cl)c12 (single isomer, unassigned) [compound 365]
b = Cc1c(CC(=O)N[C@H](CO)c2ncc(F)cc2F)c(=O)[nH]c2ccnc(C(F)(F)F)c12 [compound 263]
c = C#Cc1nccc2[nH]c(=O)c(CC(=O)N[C@@H](C)c3cnc(N=[N+]=[N-])cc3C)c(C)c12 [compound 488]
Parameters: sort_field (Ventricular EC25), sort_dir (desc). # the answer lists labels in the order requested
b, c, a
